Overview of reported inhibition across a group of compounds:
Biological target: DNA (cytosine-5)-methyltransferase 3A (Homo sapiens)
Sequence (Q9Y6K1 whole entry, looked up, the tested form may be a part): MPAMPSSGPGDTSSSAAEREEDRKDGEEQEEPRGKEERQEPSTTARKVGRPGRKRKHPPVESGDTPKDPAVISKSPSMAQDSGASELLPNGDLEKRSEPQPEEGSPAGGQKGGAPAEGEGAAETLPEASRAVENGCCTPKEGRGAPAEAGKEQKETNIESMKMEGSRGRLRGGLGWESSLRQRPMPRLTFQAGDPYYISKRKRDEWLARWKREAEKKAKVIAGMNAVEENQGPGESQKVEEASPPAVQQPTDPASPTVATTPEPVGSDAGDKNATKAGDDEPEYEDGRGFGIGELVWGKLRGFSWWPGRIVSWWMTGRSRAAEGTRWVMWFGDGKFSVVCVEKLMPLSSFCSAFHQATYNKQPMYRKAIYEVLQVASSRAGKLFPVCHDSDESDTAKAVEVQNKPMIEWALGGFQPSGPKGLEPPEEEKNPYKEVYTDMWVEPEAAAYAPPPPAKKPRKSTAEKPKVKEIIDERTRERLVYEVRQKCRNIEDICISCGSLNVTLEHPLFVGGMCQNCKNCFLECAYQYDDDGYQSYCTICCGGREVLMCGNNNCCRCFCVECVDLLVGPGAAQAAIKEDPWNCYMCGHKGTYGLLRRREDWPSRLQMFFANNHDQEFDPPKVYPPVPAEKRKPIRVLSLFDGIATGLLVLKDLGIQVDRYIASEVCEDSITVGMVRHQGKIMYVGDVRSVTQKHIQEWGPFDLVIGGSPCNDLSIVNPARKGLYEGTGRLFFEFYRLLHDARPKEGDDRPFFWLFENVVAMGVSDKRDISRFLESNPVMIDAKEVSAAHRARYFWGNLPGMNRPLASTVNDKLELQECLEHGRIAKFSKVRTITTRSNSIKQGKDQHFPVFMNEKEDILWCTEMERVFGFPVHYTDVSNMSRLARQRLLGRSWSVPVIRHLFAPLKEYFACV
Experiment: Inhibition of N-terminal His6-tagged DNMT3A (623 to 908 residues) (unknown origin) expressed in Escherichia coli BL21 (DE3) coexpressing DNMT3L (160 to 386 C-terminal residues) (unknown origin) assessed as reduction in oligonucleosome methylation at 100 uM preincubated for 15 mins followed by addition of [3H]-SAM measured after 4 hrs by liquid scintillation counting method

Take a look at these entries with their results.
CC(C)(C)N1C(=O)c2ccc(C(=O)Nc3ccc(C(=O)O)cc3)cc2C1=O; 11%
Cc1ccc(O)c(NC(=O)c2ccc3c(c2)C(=O)N(Cc2cccnc2)C3=O)c1; 6%
O=C(O)c1ccc(NC(=O)c2ccc3c(c2)C(=O)N(Cc2ccco2)C3=O)cc1; 92%
O=C(Nc1ccc(Br)cc1C(=O)O)c1ccc2c(c1)C(=O)N(c1cc(Cl)ccc1C(=O)O)C2=O; 67%

Q: I'd like to know its inhibition. The compound in question is "COc1ccccc1N1C(=O)c2ccc(C(=O)Nc3ccccc3O)cc2C1=O"
Ans: 1%

Q: Follow-up entry: "CCOc1ccccc1N1C(=O)c2ccc(C(=O)Nc3ccc(Br)cc3C(=O)O)cc2C1=O"
Ans: 56%

Q: "COc1ccc(N2C(=O)c3ccc(C(=O)Nc4ccccc4OC)cc3C2=O)cc1" , same question.
Ans: 4%

* * *

Molecular target: DNA (cytosine-5)-methyltransferase 3A (Homo sapiens)
ATTRIBUTE MEASURED: IC50 (µM)

O=C(Nc1ccc(Br)cc1C(=O)O)c1ccc2c(c1)C(=O)N(c1cc(Cl)ccc1C(=O)O)C2=O; 41
CC(c1ccccc1)N1C(=O)c2ccc(C(=O)Nc3ccc(Br)cc3C(=O)O)cc2C1=O (configuration not stated); 46.5

* * *

Target: DNA (cytosine-5)-methyltransferase 3A (Homo sapiens)
Assay: Inhibition of N-terminal His6-tagged DNMT3A (623 to 908 residues) (unknown origin) expressed in Escherichia coli BL21 (DE3) coexpressing DNMT3L (160 to 386 C-terminal residues) (unknown origin) assessed as reduction in oligonucleosome methylation at 100 uM preincubated for 15 mins followed by addition of [3H]-SAM measured after 4 hrs by liquid scintillation counting method
ATTRIBUTE MEASURED: inhibition

Below: 5 molecules and their reported inhibition.
O=C(Nc1ccccc1Cl)c1ccc2c(c1)C(=O)N(Cc1ccco1)C2=O; 13%
COCCN1C(=O)c2ccc(C(=O)Nc3ccc(Br)cc3C(=O)O)cc2C1=O; -8%
Cc1cc(Br)ccc1NC(=O)c1ccc2c(c1)C(=O)N(CC(C)C)C2=O; 8%
CCOc1ccc(NC(=O)c2ccc3c(c2)C(=O)N(c2ccccc2)C3=O)cc1; 19%
COc1ccccc1NC(=O)c1ccc2c(c1)C(=O)N(Cc1ccco1)C2=O; 3%

// switching to the query molecule
Q: What value of measured inhibition is listed for "Cc1cc(O)ccc1NC(=O)c1ccc2c(c1)C(=O)N(Cc1cccnc1)C2=O" ?
Ans: 11%
